Examples of molecules with documented Tm2 follow.
Target desc: PmSiaT (Proteus mirabilis)
Construct: made in house
Assay method text: nanoDSF thermal shift assay, PmSiaT
Type: binding
Measurement context: PmSiaT, experiment 2, first capillary, 1.25 mM
Express your answer in °C, writing the number without its unit.

CC(=O)NC1C(OCc2ccc(Br)cc2)CC(O)(C(=O)O)OC1C(O)C(O)CO (stereo not shown)    55.8
CC(=O)NC1C(OCc2ccc(F)cc2)CC(O)(C(=O)O)OC1C(O)C(O)CO (stereo not shown)    53.1
O=C(CCl)NC1C(O)CC(O)(C(=O)O)OC1C(O)C(O)CO (stereo not shown)    49.9
CC(=O)NC1C(O)CC(O)(C(=O)O)OC1C(O)C(O)CN=[N+]=[N-] (stereo not shown)    46.0
O=C(CO)N[C@H]1[C@H]([C@H](O)[C@H](O)CO)OC(O)(C(=O)O)C[C@@H]1O (stereo partly shown) [Neu5Gc, 5-N-glycolyl neuraminic acid, reference compound]    48.1

Request: Which Tm2 reading was recorded for the molecule CC(=O)N[C@H]1[C@H]([C@H](O)[C@H](O)CO)OC(C(=O)O)=C[C@@H]1O [Compound 9, reference compound] ?
Response: 46.3

Request: Requested field: Tm2. Item: CC(=O)NC1C(OCc2ccc(C#N)cc2)CC(O)(C(=O)O)OC1C(O)C(O)CO (stereo not shown)
Response: 53.6

Request: Quick check: Tm2 of CC(=O)NC1C(OCc2ccccc2)CC(O)(C(=O)O)OC1C(O)C(O)CO (stereo not shown) ?
Response: 53.7

Request: What does the data say about its Tm2? Entry: O=C(Cc1ccccc1)NC1C(O)CC(O)(C(=O)O)OC1C(O)C(O)CO (stereo not shown)
Response: 46.3

Request: Tm2 lookup needed for CC(=O)N[C@H]1[C@H]([C@H](O)[C@H](O)CO)OC(O)(C(=O)O)C[C@@H]1O (stereo partly shown) [Neu5Ac, 5-N-acetyl neuraminic acid, reference compound] , thanks.
Response: 49.1

Request: What Tm2 value was documented for this molecule, O=C(CF)NC1C(O)CC(O)(C(=O)O)OC1C(O)C(O)CO (stereo not shown) ?
Response: 47.7

Request: Reported Tm2, molecule CC(C)C(=O)NC1C(O)CC(O)(C(=O)O)OC1C(O)C(O)CO (stereo not shown) : ____
Response: 47.2

Request: Using the record for CC(=O)NC1C(O)CC(O)(C(=O)O)OC1C(O)C(O)CBr (stereo not shown) , report its Tm2.
Response: 47.3

Request: If you can, please state the reported Tm2 value of CC(=O)NC1C(O)CC(O)(C(=O)O)OC1C(O)C(C)O (stereo not shown) .
Response: 45.8

Request: Which value of Tm2 has been reported for CC(=O)NC1C(O)CC(O)(C(=O)O)OC1C(O)C(O)CCl (stereo not shown) in the records?
Response: 47.9

Request: May I ask what Tm2 has been recorded for CC(=O)NC1C(OCc2cc(F)cc(F)c2)CC(O)(C(=O)O)OC1C(O)C(O)CO (stereo not shown) ?
Response: 55.2

* * *

Target desc: SaSiaT (Staphylococcus aureus, UniProt A0A0H2XJ46)
Sequence (A0A0H2XJ46 entry or part of it): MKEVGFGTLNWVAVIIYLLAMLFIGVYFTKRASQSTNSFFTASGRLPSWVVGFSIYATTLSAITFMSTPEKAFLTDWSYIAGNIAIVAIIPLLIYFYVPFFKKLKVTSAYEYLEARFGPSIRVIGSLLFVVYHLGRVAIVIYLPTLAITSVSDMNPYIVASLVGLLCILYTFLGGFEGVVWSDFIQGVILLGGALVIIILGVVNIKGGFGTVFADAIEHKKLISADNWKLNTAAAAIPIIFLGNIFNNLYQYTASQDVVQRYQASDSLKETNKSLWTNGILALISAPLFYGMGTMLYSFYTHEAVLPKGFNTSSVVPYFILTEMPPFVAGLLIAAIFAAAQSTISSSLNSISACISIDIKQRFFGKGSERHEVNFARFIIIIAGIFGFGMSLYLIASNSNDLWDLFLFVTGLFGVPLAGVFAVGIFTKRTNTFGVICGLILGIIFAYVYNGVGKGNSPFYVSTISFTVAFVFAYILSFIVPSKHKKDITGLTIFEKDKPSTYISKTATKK
Assay method text: nanoDSF thermal shift assay, SaSiaT
Format: binding
Measurement context: SaSiaT Tm, average of experiment 2
Measure name: Average 2 (°C)
Write the answer as a number in °C, unit excluded.

These solved cases illustrate the format of a correct answer.
CC(=O)NC1C(OCc2ccccc2)CC(O)(C(=O)O)OC1C(O)C(O)CO (stereo not shown)    55.7
CC(=O)NC1C(O)CC(O)(C(=O)O)OC1C(O)C(O)CCl (stereo not shown)    49.6
CCSCC(O)C(O)C1OC(O)(C(=O)O)CC(O)C1NC(C)=O (stereo not shown)    48.6

Now for the molecule whose Average 2 we want.
Request: I am curious: what Average 2 value has been reported for O=C(CO)N[C@H]1[C@H]([C@H](O)[C@H](O)CO)OC(O)(C(=O)O)C[C@@H]1O (stereo partly shown) [Neu5Gc, 5-N-glycolyl neuraminic acid, reference compound] ?
Response: 53.3

* * *

Reported Average 2 values are given for each entry in this list.
Target desc: SaSiaT (Staphylococcus aureus, UniProt A0A0H2XJ46)
Assay method text: nanoDSF thermal shift assay, SaSiaT
Type: binding
Measurement context: SaSiaT Tm, average of experiment 2
Quick reminder: number only, in °C, skip the unit.

Sample records with Average 2:
[N-]=[N+]=NCC(=O)N[C@H]1[C@H]([C@H](O)[C@H](O)CO)O[C@@](O)(C(=O)O)C[C@@H]1O [Compound 6h, reference compound]    52.9
CC(=O)NC1C(OCc2ccc(Br)cc2)CC(O)(C(=O)O)OC1C(O)C(O)CO (centres unmarked) [Compound 3c]    53.5
CC(=O)NC1C(O)CC(O)(C(=O)O)OC1C(O)C(O)CBr (centres unmarked) [Compound 8d]    49.9
O=C(Cc1ccccc1)NC1C(O)CC(O)(C(=O)O)OC1C(O)C(O)CO (centres unmarked) [Compound 6e]    51.0
CC(=O)NC1C(OCc2ccc(F)cc2)CC(O)(C(=O)O)OC1C(O)C(O)CO (centres unmarked) [Compound 3b]    56.2

Request: Fill in the blank: the reported Average 2 of CC(=O)NC1C(OCc2ccc(C#N)cc2)CC(O)(C(=O)O)OC1C(O)C(O)CO (centres unmarked) [Compound 3d] is ____.
Response: 53.6

Request: Entry under review: O=C(CCl)NC1C(O)CC(O)(C(=O)O)OC1C(O)C(O)CO (centres unmarked) [Compound 6g] . Reported Average 2?
Response: 49.2

Request: Quick one: Average 2 of CC(=O)NC1C(OCc2cc(F)cc(F)c2)CC(O)(C(=O)O)OC1C(O)C(O)CO (centres unmarked) [Compound 3e] ?
Response: 56.7

* * *

Target desc: PmSiaT (Proteus mirabilis, UniProt B4EZY7)
Construct: made in house
Sequence (B4EZY7 1-496): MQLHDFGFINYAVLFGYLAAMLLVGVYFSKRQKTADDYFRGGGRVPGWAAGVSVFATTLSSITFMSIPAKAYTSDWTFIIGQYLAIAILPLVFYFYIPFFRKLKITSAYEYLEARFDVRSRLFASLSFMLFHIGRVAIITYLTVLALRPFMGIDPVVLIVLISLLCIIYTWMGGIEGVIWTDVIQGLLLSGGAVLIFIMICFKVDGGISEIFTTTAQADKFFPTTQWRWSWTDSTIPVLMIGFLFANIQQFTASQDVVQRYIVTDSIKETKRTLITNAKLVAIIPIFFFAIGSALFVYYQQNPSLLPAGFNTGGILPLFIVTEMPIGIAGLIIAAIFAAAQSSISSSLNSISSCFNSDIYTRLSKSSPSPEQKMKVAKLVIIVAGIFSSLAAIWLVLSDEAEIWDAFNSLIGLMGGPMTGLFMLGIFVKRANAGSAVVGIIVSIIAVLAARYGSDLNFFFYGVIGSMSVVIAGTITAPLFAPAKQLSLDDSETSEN
Assay method text: nanoDSF thermal shift assay, PmSiaT
Format: binding
Measurement context: PmSiaT, experiment 1, first capillary, 1.25 mM
Experimental: Nano-differential scanning fluorimetry (nanoDSF) is a high-throughput method that relies on the thermal stabilization of the folded protein state by a bound ligand.[33] The melting points of protein–inhibitor complexes were measured on a Prometheus NT.48 instrument from NanoTemper Technologies. […] The fluorescence was recorded at 330 and 350 nm and as a ratio of the two wavelengths. […] The melting temperatures have been measured in 3 separate experiments. […] This is calculated from Average 1. […]
Catalogue of Tm 1 values
Respond with the bare value in °C.

Request: Which Tm 1 reading was recorded for the compound CCC(=O)NC1C(O)CC(O)(C(=O)O)OC1C(O)C(O)CO (stereo not shown) [Compound 6a] ?
Response: 46.8

Request: Which measured Tm 1 value corresponds to CC(=O)NC1C(O)CC(O)(C(=O)O)OC1C(O)C(O)CBr (stereo not shown) [Compound 8d] ?
Response: 47.2

Request: Any idea what its Tm 1 is? The compound is CC(=O)NC1C(O)CC(O)(C(=O)O)OC1C(O)C(C)O (stereo not shown) [Compound 8f]
Response: 46.0

Request: Give its Tm 1 value. Item: O=C(NC1C(O)CC(O)(C(=O)O)OC1C(O)C(O)CO)c1ccccc1 (stereo not shown) [Compound 6d]
Response: 45.1

Request: Request the reported Tm 1 associated with O=C(CCl)NC1C(O)CC(O)(C(=O)O)OC1C(O)C(O)CO (stereo not shown) [Compound 6g]
Response: 49.9

Request: Could you tell me which Tm 1 is on file for O=C(Cc1ccccc1)NC1C(O)CC(O)(C(=O)O)OC1C(O)C(O)CO (stereo not shown) [Compound 6e] ?
Response: 45.2

Request: Record request: Tm 1 value, item CC(=O)NC1C(OCc2ccc(Br)cc2)CC(O)(C(=O)O)OC1C(O)C(O)CO (stereo not shown) [Compound 3c]
Response: 56.6

Request: I would be grateful if you could share the reported Tm 1 for O=C(CF)NC1C(O)CC(O)(C(=O)O)OC1C(O)C(O)CO (stereo not shown) [Compound 6f] .
Response: 47.4

Request: Value lookup for Tm 1; key = [N-]=[N+]=NCC(=O)N[C@H]1[C@H]([C@H](O)[C@H](O)CO)O[C@@](O)(C(=O)O)C[C@@H]1O [Compound 6h, reference compound]
Response: 49.2

Request: Given CC(=O)N[C@H]1[C@H]([C@H](O)[C@H](O)CO)OC(O)(C(=O)O)C[C@@H]1O (stereo partly shown) [Neu5Ac, 5-N-acetyl neuraminic acid, reference compound] , state its recorded Tm 1.
Response: 49.2

Request: Entry CC(=O)NC1C(OCc2cc(Br)cc(Br)c2)CC(O)(C(=O)O)OC1C(O)C(O)CO (stereo not shown) [Compound 3f] has what Tm 1?
Response: 63.9

Request: // lookup Tm 1 for O=C(CO)N[C@H]1[C@H]([C@H](O)[C@H](O)CO)OC(O)(C(=O)O)C[C@@H]1O (stereo partly shown) [Neu5Gc, 5-N-glycolyl neuraminic acid, reference compound]
Response: 47.9

Request: Would you kindly share the measured Tm 1 for CC(=O)NC1C(O)CC(O)(C(=O)O)OC1C(O)C(O)CI (stereo not shown) [Compound 8e] ?
Response: 47.2

meta.source: paper PMC9295122
